Hi there, I'd appreciate the recorded Papp at 2.5 h for every entry that follows.
Test: PAMPA blood-brain barrier permeation (porcine brain lipid)
Type: in vitro ADME
Details: PAMPA-BHE, PBS pH 7.4/EtOH 70:30, 2 h 30 min at 25° C., mean ± SD; read-out: Pe
Answers are plain numbers, in ×10⁻⁶ cm/s.

// solved cases for Papp at 2.5 h follow
In plain terms, Ic1cccc(CSc2ncnc3[nH]cnc23)c1 has a documented Papp at 2.5 h of 13.8

compound O=[N+]([O-])c1cccc(CSc2ncnc3[nH]cnc23)c1 , Papp at 2.5 h observed: 3.9

The recorded Papp at 2.5 h for O=[N+]([O-])c1ccc(CSc2ncnc3[nH]cnc23)cc1 is 5.5

Continuing:
The measured Papp at 2.5 h associated with Clc1cccc(CSc2ncnc3[nH]cnc23)c1 reads 15.1

====

Please respond with reported pIC50 for every item in the list.
Biological target: human recombinant CDC7/DBF4 (Homo sapiens, UniProt O00311)
Sequence (O00311 whole entry): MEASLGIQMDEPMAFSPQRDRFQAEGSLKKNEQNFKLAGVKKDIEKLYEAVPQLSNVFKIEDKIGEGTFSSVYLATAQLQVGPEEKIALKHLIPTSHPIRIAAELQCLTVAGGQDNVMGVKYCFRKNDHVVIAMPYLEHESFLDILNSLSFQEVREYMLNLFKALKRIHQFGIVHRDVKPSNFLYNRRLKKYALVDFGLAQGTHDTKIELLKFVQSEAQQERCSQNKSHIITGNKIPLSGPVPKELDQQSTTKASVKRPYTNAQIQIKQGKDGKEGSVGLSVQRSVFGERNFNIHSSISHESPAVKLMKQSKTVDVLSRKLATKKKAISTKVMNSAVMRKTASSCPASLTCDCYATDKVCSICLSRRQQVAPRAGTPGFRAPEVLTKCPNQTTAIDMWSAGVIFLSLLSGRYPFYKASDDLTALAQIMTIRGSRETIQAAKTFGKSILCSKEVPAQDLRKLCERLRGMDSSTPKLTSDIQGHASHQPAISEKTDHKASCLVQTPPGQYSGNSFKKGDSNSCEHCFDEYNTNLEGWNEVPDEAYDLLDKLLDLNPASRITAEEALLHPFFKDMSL
Sequence (Q9UBU7 whole entry partner): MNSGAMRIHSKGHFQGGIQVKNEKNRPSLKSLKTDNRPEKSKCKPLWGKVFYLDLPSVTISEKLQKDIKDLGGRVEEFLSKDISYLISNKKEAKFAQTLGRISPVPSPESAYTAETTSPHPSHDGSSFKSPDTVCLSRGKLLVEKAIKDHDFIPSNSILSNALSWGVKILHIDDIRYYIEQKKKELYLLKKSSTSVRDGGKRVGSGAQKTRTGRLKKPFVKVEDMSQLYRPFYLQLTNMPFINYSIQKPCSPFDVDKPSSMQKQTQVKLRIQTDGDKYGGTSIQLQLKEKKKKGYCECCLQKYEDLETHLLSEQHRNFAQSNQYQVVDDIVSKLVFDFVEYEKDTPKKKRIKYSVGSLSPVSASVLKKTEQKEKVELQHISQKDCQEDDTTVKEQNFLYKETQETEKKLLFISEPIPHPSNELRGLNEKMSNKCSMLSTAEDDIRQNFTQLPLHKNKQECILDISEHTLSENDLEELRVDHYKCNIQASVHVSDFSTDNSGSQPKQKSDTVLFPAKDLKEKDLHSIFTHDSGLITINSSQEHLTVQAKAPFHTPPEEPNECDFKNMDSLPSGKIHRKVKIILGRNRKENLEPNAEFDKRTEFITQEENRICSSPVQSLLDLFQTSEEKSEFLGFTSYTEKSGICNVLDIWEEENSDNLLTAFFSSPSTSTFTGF
Assay: CDC7 inhibition measurement (LanthaScreen Eu kinase binding, FRET)
Conditions: CDC7/DBF4 0.5 nM, 60 min at room temperature; read-out: CDC7 Lantha ™ CI50
Numbers only, as −log10 of the molar value.

Look over these answered cases.
Input Brc1cccc(CSc2ncnc3[nH]cnc23)c1 . Output pIC50: 6.86

// Clc1ccc(CSc2ncnc3[nH]cnc23)cc1 : pIC50 value = 6.74

Note to self: pIC50 recorded for Clc1cccc(COc2ncnc3[nH]cnc23)c1 was 6.71

pIC50 recorded for this molecule, c1ccc(CSc2ncnc3[nH]cnc23)cc1 , is 6.90

Query c1ccc(COc2[nH]cnc3ncnc2-3)cc1 yields pIC50 of 6.78

get_value(item= FC(F)(F)c1ccc(CSc2ncnc3[nH]cnc23)cc1 , readout=pIC50) returns 6.44

Each of the following entries comes with a recorded value; kindly state pIC50 for each.
1. O=[N+]([O-])c1ccc(CSc2ncnc3[nH]cnc23)cc1
2. Clc1ccccc1CSc1ncnc2[nH]cnc12
3. Brc1ccccc1CSc1ncnc2[nH]cnc12
4. Ic1cccc(CSc2ncnc3[nH]cnc23)c1
5. FC(F)(F)c1ccccc1CSc1ncnc2[nH]cnc12
6. N#Cc1cccc(CSc2ncnc3[nH]cnc23)c1
7. Clc1cccc(CSc2ncnc3[nH]cnc23)c1
8. CCOC(=O)c1ccccc1CSc1ncnc2[nH]cnc12

## Output
1: 6.90; 2: 7.04; 3: 6.56; 4: 7.07; 5: 6.61; 6: 6.47; 7: 6.76; 8: 5.55

Dear colleague, could you please provide pIC50 for the molecules listed below?
1. c1ccc2c(CSc3ncnc4[nH]cnc34)cccc2c1
2. CSc1ccc(CSc2ncnc3[nH]cnc23)cc1

## Output
[6.46, 6.84]

====

Test: PAMPA blood-brain barrier permeation (porcine brain lipid)
Assay type: in vitro ADME
Conditions: PAMPA-BHE, PBS pH 7.4/EtOH 70:30, 2 h 30 min at 25° C., mean ± SD; read-out: Pe
Metric: Papp at 2.5 h (×10⁻⁶ cm/s)
One number for each entry, in ×10⁻⁶ cm/s.

Example molecules with recorded Papp at 2.5 h:
Sure, the documented Papp at 2.5 h for COc1cccc(CSc2ncnc3[nH]cnc23)c1 [Compound 15, 6-((3-methoxybenzyl)thio)-9H-purine] is 5.3

Record FC(F)(F)c1cccc(CSc2ncnc3[nH]cnc23)c1 [Compound 7] . Reported Papp at 2.5 h: 16.3

Record Brc1ccc(CSc2[nH]cnc3ncnc2-3)cc1 [Compound 12, 6-((4-bromobenzyl)thio)-9H-purine] . Reported Papp at 2.5 h: 11.5

Fill in Papp at 2.5 h for each of the 7 molecules listed.
1. FC(F)(F)c1ccccc1CSc1ncnc2[nH]cnc12 [Compound 4]
2. c1ccc(CSc2ncnc3[nH]cnc23)cc1 [Compound 1, 6-(benzylthio)-9H-purine]
3. c1ccc2c(CSc3ncnc4[nH]cnc34)cccc2c1 [Compound 2]
4. Brc1ccccc1CSc1ncnc2[nH]cnc12 [Compound 13, 6-((2-bromobenzyl)thio)-9H-purine]
5. CCOC(=O)c1ccccc1CSc1ncnc2[nH]cnc12 [Compound 16]
6. c1ccc(COc2[nH]cnc3ncnc2-3)cc1 [Compound 20, 6-((benzyl)oxy)-9H-purine]
7. CSc1ccc(CSc2ncnc3[nH]cnc23)cc1 [Compound 23, 6-((4-(Methylthio)benzyl)thio)-9H-purine]

## Output
[17.5, 6.2, 13.2, 13.1, 9.7, 2.9, 17.8]
